Test system: c-Src;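 also: 11-residue human phosphosite peptides and single-mutation variants displayed on the E. coli surface, counted by deep sequencing, each peptide's frequency after selection divided by its frequency in the unselected input library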;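 also: frequency after pTyr selection over input frequency; kinase dosed for 20-30% of maximal phosphorylation in three min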
Test: phosphorylation enrichment, bacterial display (enrichment ratio); higher = better substrate or ligand; peptides without Tyr show the background
Returns one of Yes or No; Yes when phosphorylation enrichment is >= 0.5.

Req: Is phosphorylation enrichment for AAAAVYTFLPD [MYORG_Y36_M35V] at or above 0.5?
Resp: Yes

Req: Form field: phosphorylation enrichment at least 0.5? Entry: ISKKIYDTIHD [CTNNA3_Y614]
Resp: Yes

Req: hey, is phosphorylation enrichment for this one >= 0.5? VPLATYMRIYK [RPL21_Y30]
Resp: No

Req: Determine whether this sequence has phosphorylation enrichment no lower than 0.5: KGEDFYCVTYH [FHL1_Y149_C153Y]
Resp: Yes

Req: API: above_or_equal(metric=phosphorylation enrichment, cutoff=0.5) for item SLAARYYNWVS [FLT4_Y1230]
Resp: Yes

Req: Evaluate LFHENYNAGTY [CFI_Y421_I416L] : phosphorylation enrichment at minimum 0.5?
Resp: Yes

Req: Decide: is the reported value of phosphorylation enrichment for LLKANYELLNA [POLR3A_Y714_K713N] equal to or greater than 0.5?
Resp: Yes

Req: Determine whether measured phosphorylation enrichment meets or exceeds 0.5 for KFMVGYEMIAQ [GALT_Y339_L342I]
Resp: No

Req: Textbook exercise: given the entry HSRTRYERNIE [F2_Y434] , state whether its phosphorylation enrichment is greater than or equal to 0.5.
Resp: Yes

Req: Please tell me: is the sequence TLSGTYQFIIA [FOXL2_Y81_I80T_YF] at or over 0.5 in terms of phosphorylation enrichment?
Resp: Yes

Req: Decide: is the reported value of phosphorylation enrichment for QNKEDYDGLKE [GSTO1_Y139_A140D] equal to or greater than 0.5?
Resp: Yes

Req: Is it the case that DPGVSYRTREE [PDHA1_Y301] has phosphorylation enrichment reaching or exceeding 0.5?
Resp: No

Req: # check: phosphorylation enrichment of PSGPTYRGAVP [ASAH1_Y43] is greater than or equal to 0.5
Resp: Yes

Req: In plain terms: is recorded phosphorylation enrichment at least 0.5 for FIAVGYVDDSQ [HLA-A_Y51_T55S] ?
Resp: No

Req: Please indicate if the recorded phosphorylation enrichment for TTTQAYRVDER [PRKN_Y391] meets or exceeds 0.5.
Resp: No

Req: Determine whether this sequence has phosphorylation enrichment no lower than 0.5: LGSVVYAQSKE [KCNQ2_Y226_H228Q]
Resp: Yes

Req: Is phosphorylation enrichment at least 0.5? Consider LSDGPYSNPFE [EPOR_Y485_YF]
Resp: Yes

Req: Assess whether reported phosphorylation enrichment for GMKIVYVYVKK [DNAI2_Y5_E2K] sits at 0.5 or higher.
Resp: No

Req: Reported phosphorylation enrichment at or above 0.5? GVRYTYTIDGS [DCX_Y105_I104T]
Resp: Yes

Req: // inclusive: phosphorylation enrichment at least 0.5? input: SLAARYFNWVC [FLT4_Y1230_S1235C_YF]
Resp: No

Req: Check if phosphorylation enrichment >= 0.5 (inclusive). Item: FTNELYMMMRD [FGFR1_Y730_C725Y_YF]
Resp: Yes

Req: Is it the case that QRIHNYYEHRY [HCN4_Y554_D553N] has phosphorylation enrichment reaching or exceeding 0.5?
Resp: Yes

Req: Given VNNLVYENING [FRS2_Y306_K303N] , state whether its phosphorylation enrichment is at least 0.5.
Resp: Yes

Req: Decide: phosphorylation enrichment of IRTIDYRFTVC [IDS_Y497_W502C_YF] >= 0.5?
Resp: No

Req: Decide: is the reported value of phosphorylation enrichment for ATHSGYRLNDF [CLDN14_Y233_YF] equal to or greater than 0.5?
Resp: No

Req: Evaluate VSGIPYSQPKQ [NEU1_Y251_G252S] : phosphorylation enrichment at minimum 0.5?
Resp: No

Req: Test whether the sequence PVFQVYPLLNC [GATA1_Y78] records phosphorylation enrichment of 0.5 or higher.
Resp: Yes

Req: Record GHLFANDWISI [BEST1_Y227_Y227N_YF] ; criterion: phosphorylation enrichment no lower than 0.5. Met?
Resp: No

Req: Tell me whether phosphorylation enrichment is at least 0.5 here: FSMGCYEFSLG [HMGCL_Y198_I200F_YF]
Resp: Yes

Req: Is it the case that EWQQIYTFDSG [JUP_Y20_T19I_YF] has phosphorylation enrichment reaching or exceeding 0.5?
Resp: Yes

Req: Entry GCKNRYDKGKP [THAP1_Y14_D17G] : is its phosphorylation enrichment no less than 0.5?
Resp: No

Req: Please check the record PMQMPYDSRWE [PDGFRA_Y582_L580M] and state if its phosphorylation enrichment is at or above 0.5.
Resp: Yes

Req: Please tell me: is the sequence AVEDQYYRVDC [FHL1_Y207_C209R] at or over 0.5 in terms of phosphorylation enrichment?
Resp: Yes

Req: Could you verify whether the entry VPVPGYTKVPE [SPRR3_Y146_L149V] shows phosphorylation enrichment of no less than 0.5?
Resp: No

Req: Assess whether reported phosphorylation enrichment for TISPFYRQSLF [CRYAA_Y48_YF] sits at 0.5 or higher.
Resp: No

Req: Hi, just wondering whether RAFRRYLLKQK [SCN2A_Y1919_YF] shows phosphorylation enrichment of 0.5 or higher.
Resp: Yes

Req: Would you say QLLIKYPPEEV [ZZZ3_Y670] shows phosphorylation enrichment at minimum 0.5?
Resp: Yes

Req: Evaluate KDFTKYVAFIE [KDM4B_Y31_N29T_YF] : phosphorylation enrichment at minimum 0.5?
Resp: No

Req: Please tell me: is the sequence CTTIHKNYMCN [TP53_Y234_Y234K] at or over 0.5 in terms of phosphorylation enrichment?
Resp: No

Req: Could you please find out whether AEKPKYQINNI [TJP1_Y1602] has phosphorylation enrichment that meets 0.5 or exceeds it?
Resp: No

Req: Is it the case that ITKQEYDEAGP [ACTA1_Y364] has phosphorylation enrichment reaching or exceeding 0.5?
Resp: No

Req: # check: phosphorylation enrichment of VIECSYTSADG [DHCR7_Y382] is greater than or equal to 0.5
Resp: Yes

Req: API: above_or_equal(metric=phosphorylation enrichment, cutoff=0.5) for item TFVVLYDAELT [ERCC4_Y581_R576T_YF]
Resp: Yes

Req: Is it the case that QRPFVYFFSFL [PTEN_Y176_R173P_YF] has phosphorylation enrichment reaching or exceeding 0.5?
Resp: Yes

Req: Exam item: decide whether the reported phosphorylation enrichment for KKFPDYIQIAM [SGMS2_Y59_YF] is at least 0.5.
Resp: Yes

Req: Quick check, phosphorylation enrichment >= 0.5? PQAVRYIYTID [DCX_Y103_G100A]
Resp: Yes

Req: Record FDFKKYGKGLR [ZNF445_Y433_YF] ; criterion: phosphorylation enrichment no lower than 0.5. Met?
Resp: No

Req: phosphorylation enrichment >= 0.5 for DIRAQYDELAR [KRT18_Y256] ?
Resp: No

Req: Threshold query (phosphorylation enrichment >= 0.5) on EASEQYLTKAS [NRCAM_Y739]
Resp: No

Req: Confirm if phosphorylation enrichment reported for the sequence PEQAAYQKVVA [HBB_Y131_V127E] is 0.5 or above.
Resp: No

Req: Is the recorded value of phosphorylation enrichment equal to or greater than 0.5 for this sequence? APRKVYDTQDD [ZFPL1_Y215_R218Q]
Resp: No

Req: # check: phosphorylation enrichment of LPKVSYVKAID [GLRA1_Y307] is greater than or equal to 0.5
Resp: No

Req: Has AAFNKYDQERF [CDC73_Y293_R292K_YF] a recorded phosphorylation enrichment greater than or equal to 0.5?
Resp: No
